targetEntity: full-length beta-Catenin (Uniprot ID P35222) (Homo sapiens (Human)) (UniProt P35222)
Sequence (P35222 2-781 limits assumed): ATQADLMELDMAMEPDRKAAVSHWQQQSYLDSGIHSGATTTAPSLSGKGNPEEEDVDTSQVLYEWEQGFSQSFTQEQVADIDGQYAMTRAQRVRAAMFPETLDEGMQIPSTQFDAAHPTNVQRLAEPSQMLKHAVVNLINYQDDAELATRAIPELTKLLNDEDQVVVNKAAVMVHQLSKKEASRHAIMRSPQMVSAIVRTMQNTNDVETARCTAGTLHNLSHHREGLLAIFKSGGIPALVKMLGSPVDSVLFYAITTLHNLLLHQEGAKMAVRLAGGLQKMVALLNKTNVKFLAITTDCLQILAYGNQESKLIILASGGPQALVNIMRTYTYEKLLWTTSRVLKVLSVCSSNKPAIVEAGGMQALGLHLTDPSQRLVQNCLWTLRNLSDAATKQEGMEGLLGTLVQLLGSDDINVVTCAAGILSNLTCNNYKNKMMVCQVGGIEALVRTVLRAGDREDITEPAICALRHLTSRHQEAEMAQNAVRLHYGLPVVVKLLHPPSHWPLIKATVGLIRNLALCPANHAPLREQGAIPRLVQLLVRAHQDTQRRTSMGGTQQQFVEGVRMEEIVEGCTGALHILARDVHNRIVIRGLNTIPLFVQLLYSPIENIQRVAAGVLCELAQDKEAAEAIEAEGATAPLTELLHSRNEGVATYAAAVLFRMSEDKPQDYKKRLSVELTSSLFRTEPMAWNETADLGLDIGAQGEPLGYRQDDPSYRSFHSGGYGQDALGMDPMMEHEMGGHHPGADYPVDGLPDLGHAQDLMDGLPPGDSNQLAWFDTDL
assayComment: fluorescence polarization competition; full-length beta-catenin, competitor 5FAM-TCF4(10-53) probe
Starred links: 1 amine or outer side, 2 acyl side, 3 side chain; linkers in the order of their positions; H or OH if unused. Positions of bridges follow the written chain, without caps; N, C: chain ends. Non-standard residues stand in square brackets, D forms with d. Primed or numbered codes have the meaning given here. ξ: configuration not given here. PyrS2″ = (S)-3-amino-1-((pent-4-en-1-yloxy)carbonyl)pyrrolidine-3-carboxylic acid (stapling residue), C=CCCCOC(=O)N1CC[C@@](N[*:1])(C(=O)[*:2])C1; B5(4) = 2,2-bis(4-pentenyl)glycine = 2-amino-2-(pent-4-en-1-yl)hept-6-enoic acid (stitching residue), C=CCCCC(CCCC=C)(N[*:1])C(=O)[*:2]; B5(5) = 2,2-bis(4-pentenyl)glycine, 2-amino-2-(pent-4-en-1-yl)hept-6-enoic acid (stitching residue), C=CCCCC(CCCC=C)(N[*:1])C(=O)[*:2]; TfeGA = (S)-2-amino-3-((carboxymethyl)(2,2,2-trifluoroethyl)amino)propanoic acid, O=C([C@H](CN(CC(=O)[*:3])CC(F)(F)F)N[*:1])[*:2]; Bta = N[C@@H](Cc1csc2ccccc12)C(=O)O; αAllylPro = C=CC[C@@]1(C(=O)O)CCCN1; tBuAla = CC(C)(C)C[C@H](N)C(=O)O; 3Thi = N[C@@H](Cc1ccsc1)C(=O)O; ξβ3hD = NC(CC(=O)O)CC(=O)O; Aib = CC(C)(N)C(=O)O
measurementName: IC50 (µM)

* Ac-[αAllylPro]D[tBuAla][B5(4)]DTAAFL[PyrS2″][3Thi][Bta]Q-NH2 (staple 1-4, 4-11) [I-1167] | 0.034

P: Ac-[αAllylPro][ξβ3hD][tBuAla][B5(4)]D[TfeGA]AAFN[PyrS2″][3Thi][Bta]Q-NH2 (staple 1-4, 4-11) [I-1161]
Q: Ac-[αAllylPro]D[tBuAla][B5(5)]NT[Aib]AFH[PyrS2″][3Thi][Bta]Q-NH2 (staple 1-4, 4-11) [I-2410]
Task: For this pair, P and Q , which shows a numerically higher IC50? Answer = label.
Output: Q
(Q: 0.304 µM, P: 0.024 µM)
